Target: mutant TIMs
Assay: Binding of PGA trianion to mutant TIMs, summary of Table 1
Details: read-out: (Ki)E; range over mutant TIMs
Property: Ki

Exercise: What does the record list as Ki for `O=C(O)COP(=O)(O)O` ?
Key: 3 to 30 mM

----------
Experiment: Acidity constants of ligands in water
Property: pKa
Could you respond with only the numeric value?

Exercise: What does the record list as pKa for O=C[C@H](O)COP(=O)(O)O [GAP, D-Glyceraldehyde 3-phosphate] ?
Key: 6

----------
Target: Y208F yTIM (Saccharomyces cerevisiae, UniProt P00942, Y208F)
Sequence (P00942 whole entry Y208F): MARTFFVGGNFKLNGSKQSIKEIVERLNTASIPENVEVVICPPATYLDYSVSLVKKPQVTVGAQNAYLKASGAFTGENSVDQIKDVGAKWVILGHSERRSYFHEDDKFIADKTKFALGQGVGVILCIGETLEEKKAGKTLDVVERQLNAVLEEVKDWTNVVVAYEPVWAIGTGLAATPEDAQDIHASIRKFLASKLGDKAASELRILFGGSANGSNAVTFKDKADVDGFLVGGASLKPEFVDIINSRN
Test: TIM-catalyzed isomerization of GAP
Type: biochemical, yeast
Settings: (Ki)E, release of PGA trianion from E^–·I^3–; fit to eq 7
Property: pKi
Recall that pKi is obtained by taking minus log10 of the concentration measured in molar.

Exercise: What does the record list as pKi for O=C(O)COP(=O)(O)O [PGA, 2-Phosphoglycolic acid] ?
Key: 1.80
